Taken from patent US20260365653A1.

# system: mutEGFR (D770_N771insNPG, T790) (Homo sapiens, UniProt P00533, INS770NPG/T790M)
# Construct: exact insNPG construct not described; in-house EGFR proteins were N-terminal GST fusions from baculovirus/insect cells (borders R669-A1210 given only for WT, insSVD, insASV)
# Sequence (P00533 with tags, fused parts or gaps INS770NPG/T790M limits assumed): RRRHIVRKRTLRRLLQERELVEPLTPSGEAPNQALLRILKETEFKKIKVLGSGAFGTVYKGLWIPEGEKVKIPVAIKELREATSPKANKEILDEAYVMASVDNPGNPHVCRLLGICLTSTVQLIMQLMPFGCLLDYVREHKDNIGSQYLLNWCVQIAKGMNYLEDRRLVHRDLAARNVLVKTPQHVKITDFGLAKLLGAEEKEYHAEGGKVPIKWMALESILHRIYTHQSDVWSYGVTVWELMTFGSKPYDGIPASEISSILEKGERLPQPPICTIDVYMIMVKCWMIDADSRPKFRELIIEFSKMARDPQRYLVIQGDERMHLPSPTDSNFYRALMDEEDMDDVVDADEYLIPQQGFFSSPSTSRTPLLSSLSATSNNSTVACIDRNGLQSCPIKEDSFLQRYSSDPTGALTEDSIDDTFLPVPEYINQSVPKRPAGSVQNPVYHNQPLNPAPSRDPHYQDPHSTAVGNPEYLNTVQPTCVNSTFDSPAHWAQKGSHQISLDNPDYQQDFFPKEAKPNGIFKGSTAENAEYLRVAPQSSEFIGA
# methodSummary: mutEGFR (D770_N771insNPG, T790) kinase assay
# Assay type: biochemical
# assaySetup: Table 2a, D770_N771insNPG
pIC50: −log10 of the molar value.
measuredMetric: pIC50

C=CC(=O)N1CCn2nc(-c3ccc4ccccc4c3F)c(-c3ccncc3)c2C1 [Example 111]; 9.59
C=CC(=O)N1CCn2nc(-c3ccc(OC)c(F)c3)c(-c3ccnc4[nH]cc(C)c34)c2C1 [Example 46]; 6.26
C=CC(=O)N1CCn2nc(Nc3ccc(F)cc3)c(-c3ccncc3)c2C1 [Example 19]; 6.68
C=CC(=O)N1CCn2nc(-c3ccc(C(F)(F)F)cc3)c(-c3ccnc4[nH]cc(C)c34)c2C1 [Example 48]; 5.90
C=CC(=O)N1CCn2nc(-c3ccc(OC)cc3F)c(-c3ccncc3)c2C1 [Example 142]; 8.55
O=C(/C=C/CN1CCOCC1)N1CCn2nc(-c3ccc(Cl)cc3)c(-c3ccncc3)c2C1 [Example 165]; 8.61

(a) C=C(CN1CCOCC1)C(=O)N1CCn2nc(-c3ccc(F)cc3)c(-c3ccncc3)c2C1 [Example 64]
(b) COc1cccc(-c2nn3c(c2-c2ccncc2)CN(C(=O)/C=C/CN(C)C)CC3)c1 [Example 155]
(c) C=CC(=O)N1CCn2nc(-c3ccc(OC)c(Cl)c3)c(-c3ccncc3)c2C1 [Example 38]
(d) COC/C=C/C(=O)N1CCn2nc(-c3ccc(F)cc3)c(-c3ccncc3)c2C1 [Example 66]
(e) CN(C)C/C=C/C(=O)N1Cc2c(-c3ccncc3)c(-c3ccc(F)cc3)nn2C(CC(=O)N(C)C)C1 (racemic) [Example 222]
q: Rank the 5 molecules: largest pIC50 first, smallest last. Reply with the item labels sorted in the order that was asked for.
a: c, b, e, d, a

(A) C=CC(=O)N1CCn2nc(-c3ccc4sccc4c3)c(-c3ccncc3)c2C1C (racemic) [Example 242]
(B) CN(C)C/C=C/C(=O)N1CCn2nc(Nc3ccccc3)c(-c3ccncc3)c2C1 [Example 273]
q: Lower value for measured pIC50? Options: A , B Please respond with the label that marks your chosen entry.
a: B
